target: recombinant PRL-2 (Homo sapiens); construct: 6xHis (N, cleaved yes); made in house; host or cells: E. coli One Shot BL21 Star; experiment: In vitro phosphatase assay (DiFMUP hydrolysis), PRL-2; assay type: biochemical; details: FDA-approved drug screen; compared to DMSO;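 further: PRL-2 activity read as DiFMUP hydrolysis after 20 min at room temperature with drug, enzyme first pre-reduced at 4 °C for 20 min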
Sequence (Q12974 whole entry): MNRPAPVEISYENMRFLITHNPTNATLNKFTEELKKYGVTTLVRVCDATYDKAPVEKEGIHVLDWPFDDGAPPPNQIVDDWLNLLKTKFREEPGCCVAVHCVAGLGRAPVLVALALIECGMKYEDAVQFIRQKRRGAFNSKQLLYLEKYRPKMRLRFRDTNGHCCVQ
Counter-ions that a name gives are not always drawn.
Below, each of the compounds is paired with its reported % Phosphatase Activity (compared to DMSO) PRL-2 value.
measurementLabel: % Phosphatase Activity (compared to DMSO) PRL-2 (%)

compound: CC[C@H]1OC(=O)[C@H](C)[C@@H](O[C@H]2C[C@@](C)(OC)[C@@H](O)[C@H](C)O2)[C@H](C)[C@@H](O[C@@H]2O[C@H](C)C[C@H](N(C)C)[C@H]2O)[C@](C)(O)C[C@@H](C)[C@@H]2N[C@@H](COCCOC)O[C@H]([C@H]2C)[C@]1(C)O [Dirithromycin]
readoutValue: 94

compound: Cc1cc(C(C#N)c2ccc(Cl)cc2)c(Cl)cc1NC(=O)c1cc(I)cc(I)c1O (stereo not shown) [Closantel, reference compound]
readoutValue: 17

compound: NCCC(O)(P(=O)([O-])O)P(=O)([O-])O.[Na+].[Na+] [Pamidronate Disodium]
readoutValue: 80

compound: O=S(=O)([O-])CCSSCCS(=O)(=O)[O-].[Na+].[Na+] [Dimesna]
readoutValue: 99

compound: NS(=O)(=O)c1cc(C(=O)O)c(NCc2ccco2)cc1Cl [Furosemide]
readoutValue: 107

compound: C[C@H](NCc1ccc(OCc2cccc(F)c2)cc1)C(N)=O [Safinamide Mesylate]
readoutValue: 112

compound: COC(=O)C1=C(C#N)NC(C)=C(C(=O)OC(C)C)C1c1cccc([N+](=O)[O-])c1 (stereo not shown) [Nilvadipine]
readoutValue: 82

compound: Cl.Cl.OCCN1CCN(CCCN2c3ccccc3Sc3ccc(C(F)(F)F)cc32)CC1 [Fluphenazine (dihydrochloride)]
readoutValue: 101

compound: C[C@]12C=CC(=O)C=C1CC[C@@H]1[C@@H]2C(=O)C[C@@]2(C)[C@H]1CC[C@]2(O)C(=O)CO [Prednisone]
readoutValue: 91

compound: CN1CC[C@H](c2c(O)cc(O)c3c(=O)cc(-c4ccccc4Cl)oc23)[C@H](O)C1 [Flavopiridol (Alvocidib)]
readoutValue: 82

compound: CC(=O)O[C@@]12CO[C@@H]1C[C@H](O)[C@@]1(C)C(=O)[C@H](O)C3=C(C)[C@@H](OC(=O)[C@H](O)[C@@H](NC(=O)OC(C)(C)C)c4ccccc4)C[C@@](O)([C@@H](OC(=O)c4ccccc4)[C@H]21)C3(C)C [Docetaxel]
readoutValue: 88

compound: O=C(CCNNC(=O)c1ccncc1)NCc1ccccc1 [Nialamide]
readoutValue: 100

compound: OC(CCN1CCCC1)(c1ccccc1)C1CCCCC1 (stereo not shown) [Procyclidine HCl]
readoutValue: 118

compound: Cc1ccc(NC(=O)c2ccc(CN3CC[C@H](N(C)C)C3)c(C(F)(F)F)c2)cc1Nc1nccc(-c2cncnc2)n1 [Bafetinib (INNO-406)]
readoutValue: 105

compound: Cc1cnc(NC(=O)C2=C(O)c3ccccc3S(=O)(=O)N2C)s1 [Meloxicam]
readoutValue: 75

compound: CCOC(=O)c1cncn1[C@H](C)c1ccccc1 [Etomidate]
readoutValue: 91
